- tested-on: T1, Human soluble IL-6R (human, UniProt P08887 20-358)
- T1 construct: Soluble recombinant form; biotinylated in some assays; also called hIL-6R; human IL-6R
- T1 sequence (looked up): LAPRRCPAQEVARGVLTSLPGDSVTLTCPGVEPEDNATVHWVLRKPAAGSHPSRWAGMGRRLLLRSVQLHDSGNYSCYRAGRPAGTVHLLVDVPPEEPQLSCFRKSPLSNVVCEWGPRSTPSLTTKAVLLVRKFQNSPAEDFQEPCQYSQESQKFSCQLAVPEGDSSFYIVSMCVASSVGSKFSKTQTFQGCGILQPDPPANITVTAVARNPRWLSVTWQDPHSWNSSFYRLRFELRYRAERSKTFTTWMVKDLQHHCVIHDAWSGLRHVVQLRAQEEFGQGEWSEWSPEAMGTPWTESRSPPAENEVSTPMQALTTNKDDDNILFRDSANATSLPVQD
- method: Biacore off-rate, periplasmic extracts
measured-parameter: koff (s⁻¹)
Could you give me the number in s⁻¹? Just the number is fine.

Q) Determine from records and report koff for IL6R89 (VHH, IL6R13 variant, tested as periplasmic extract) VHH: EVQLVESGGGLVQPGGSLRLSCAASGFTFDDYGMSWVRQAPGRGTEWVSAISWNGNNTYYTESMKGRFTISRDNAKNTLYLQMNSLRPEDTAVYYCVKGSTAIVGVPPTYPDEYDYWGQGTLVTVSS
A) 0.00019

Q) Determine from records and report koff for IL6R87 (VHH, IL6R13 variant, tested as periplasmic extract) VHH: EVQLVESGGGLVQPGGSLRLSCAASGFTFDDYGMSWVRQAPGKATEWVSAISWNGNNTYYTESMKGRFTISRDNAKNTLYLQMNSLRPEDTAVYYCVKGSTAIVGVPPTYPDEYDYWGQGTLVTVSS
A) 0.00011

Q) Determine from records and report koff for IL6R88 (VHH, tested as periplasmic extract and purified) VHH: EVQLVESGGGLVQPGGSLRLSCAASGFTFDDYGMSWVRQAPGKGTEWVSAISWNGNNTYYTESMKGRFTISRDNAKNTLYLQMNSLRPEDTAVYYCVKGSTAIVGVPPTYPDEYDYWGQGTLVTVSS
A) 0.00026
